This section presents molecules with their documented Act% values.
Target: CepR (Burkholderia cenocepacia)
Sequence (B4EMD0 1-239): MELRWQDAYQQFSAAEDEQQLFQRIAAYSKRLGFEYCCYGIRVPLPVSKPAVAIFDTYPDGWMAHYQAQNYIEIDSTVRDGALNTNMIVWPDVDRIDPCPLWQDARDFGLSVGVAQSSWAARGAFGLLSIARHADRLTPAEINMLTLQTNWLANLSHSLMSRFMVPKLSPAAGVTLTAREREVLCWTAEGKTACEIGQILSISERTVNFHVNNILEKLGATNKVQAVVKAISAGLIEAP
Assay: CepR agonism in E. coli β-galactosidase reporter (Ec-reporter) JLD271 [pJN105-cepR + pSC11-cepI]
Assay type: cell-based, B. cenocepacia
Conditions: Table S2, Ec-reporter; screening conc. 100 μM
Measurement Type: Act% (%)

> print(dat)
                                   molecule  measurement.type  unit.symbol  value.observed
1  CCCCCOc1ccc(C(=O)N[C@H]2CCOC2=O)cc1 [Compound R5]              Act%            %              95
2  O=C(COc1ccc(Br)cc1)N[C@H]1CCOC1=O [Compound E21]              Act%            %              89
3  CCCCCCS(=O)(=O)N[C@H]1CCOC1=O [Compound A11]              Act%            %            -5.0
4  Cc1ccc(C(=O)CCC(=O)N[C@H]2CCOC2=O)cc1 [Compound D6]              Act%            %              61
5  CC(C)Oc1ccc(C(=O)N[C@H]2CCOC2=O)cc1 [Compound R3]              Act%            %              92
6  O=C(NCc1cc(Br)cc(Br)c1OC(=O)c1ccccc1[N+](=O)[O-])c1ccccc1Cl [TP-1P, reference compound]              Act%            %              54
7  N#Cc1ccc(CC(=O)N[C@H]2CCOC2=O)cc1 [Compound E4]              Act%            %             0.2
8  CCCCCCCCCCCC(=O)N[C@H]1CCOC1=O [Compound C12-AHL, Dodecanoyl L-homoserine lactone, reference compound]              Act%            %              98
9  Cc1cccc(OCC(=O)N[C@H]2CCOC2=O)c1 [Compound E16]              Act%            %              11
